# STUDY TARGET: T1, human CCR8 (human, UniProt P51685 1-355)
# T1 construct: Native CCR8 on human PBMC (CCR8+ CD3+ or CCR8+ CD4+ lymphocytes); also called chemokine (C-C motif) receptor 8
# T1 sequence (P51685 whole entry): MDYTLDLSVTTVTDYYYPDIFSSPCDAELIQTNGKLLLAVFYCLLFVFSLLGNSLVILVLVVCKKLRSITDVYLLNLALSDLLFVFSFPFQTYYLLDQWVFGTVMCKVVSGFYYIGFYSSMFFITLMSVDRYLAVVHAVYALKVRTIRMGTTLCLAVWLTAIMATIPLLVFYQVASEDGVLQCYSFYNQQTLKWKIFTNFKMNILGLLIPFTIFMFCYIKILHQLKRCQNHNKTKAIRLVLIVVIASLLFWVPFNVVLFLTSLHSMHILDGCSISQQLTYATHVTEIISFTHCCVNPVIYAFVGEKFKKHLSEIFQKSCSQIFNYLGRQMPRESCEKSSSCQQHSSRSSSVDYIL
# RUN DESCRIPTION: flow blocking, PBMC CCR8+CD4+; competitor PE-433H
Assignment: determine reported % Blocking for the given binders.
Give a bare numeral; the unit % is implied.

Enquiry: What value of % Blocking has been reported for the following binder? AB8 (antibody, V domains shown, Hybridoma monoclonal; also called antibody 8; clone 8) VH: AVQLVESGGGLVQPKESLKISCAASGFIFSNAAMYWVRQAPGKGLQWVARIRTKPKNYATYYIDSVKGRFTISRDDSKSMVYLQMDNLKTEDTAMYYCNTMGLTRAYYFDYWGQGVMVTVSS VL: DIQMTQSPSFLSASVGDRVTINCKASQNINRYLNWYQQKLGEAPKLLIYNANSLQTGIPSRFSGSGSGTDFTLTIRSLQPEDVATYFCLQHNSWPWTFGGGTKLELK
Return: 92.6

Enquiry: Param item = AB5 (antibody, V domains shown, Hybridoma monoclonal; Same VH/VL entries as AB6; also called antibody 5; clone 5) VH: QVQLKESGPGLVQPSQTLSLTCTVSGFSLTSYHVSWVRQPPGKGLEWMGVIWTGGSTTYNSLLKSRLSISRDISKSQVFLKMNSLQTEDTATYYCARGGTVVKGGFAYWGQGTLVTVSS VL: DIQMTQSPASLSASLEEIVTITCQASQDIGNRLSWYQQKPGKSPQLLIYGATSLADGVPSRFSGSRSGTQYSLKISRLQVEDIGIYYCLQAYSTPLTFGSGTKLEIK ; retrieve measured % Blocking.
Return: 12.5

Enquiry: Consider the binder AB15 (antibody, V domains shown, Hybridoma monoclonal; Same VH/VL entries as AB14; also called antibody 15; clone 15) VH: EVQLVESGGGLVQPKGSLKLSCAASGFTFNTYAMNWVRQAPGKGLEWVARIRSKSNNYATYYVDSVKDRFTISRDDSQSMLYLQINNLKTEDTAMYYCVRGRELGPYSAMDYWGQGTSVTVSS VL: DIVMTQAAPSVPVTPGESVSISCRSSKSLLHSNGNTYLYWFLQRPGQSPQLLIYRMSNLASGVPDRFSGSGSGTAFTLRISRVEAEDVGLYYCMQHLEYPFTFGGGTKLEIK and give its measured % Blocking.
Return: 21.6

Enquiry: Using the record for AB12 (antibody, V domains shown, Hybridoma monoclonal; also called antibody 12; clone 12) VH: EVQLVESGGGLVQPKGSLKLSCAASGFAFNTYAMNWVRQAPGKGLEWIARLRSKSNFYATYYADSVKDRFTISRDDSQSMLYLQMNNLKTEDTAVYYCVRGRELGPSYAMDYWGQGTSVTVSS VL: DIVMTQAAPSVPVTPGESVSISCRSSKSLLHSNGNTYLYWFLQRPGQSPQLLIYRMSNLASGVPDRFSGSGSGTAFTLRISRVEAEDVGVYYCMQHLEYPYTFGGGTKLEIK , report its % Blocking.
Return: 60.2
